# assay.system: RALA G23C (Homo sapiens, UniProt P11233, G23C)
# Construct: (residues 11-183, either WT or G23C); hexahistidine (TEV-cleavable); made in house; host or cells: Escherichia coli BL21 (DE)
# Sequence (P11233 11-183 G23C): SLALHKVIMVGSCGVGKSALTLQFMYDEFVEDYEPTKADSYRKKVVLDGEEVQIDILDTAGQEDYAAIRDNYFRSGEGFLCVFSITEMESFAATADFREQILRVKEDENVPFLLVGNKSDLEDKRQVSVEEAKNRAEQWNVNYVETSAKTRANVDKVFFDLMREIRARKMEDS
# method.summary: Rate constant of covalent reaction of competition probes with RALA mutant (mass spectrometry)
# Type: binding
endpoint.label: Rate Constant for Reaction with Indicated Protein, RALA G23C (M⁻¹ s⁻¹)

I = C=CC(=O)N1CCN(c2ncnc3cc(Cl)c(-c4ccccc4)cc23)CC1
II = C=CC(=O)N1CCN(c2ncnc3cc(Cl)c(-c4ccc(C)s4)cc23)CC1
III = C=CC(=O)N1CCN(c2ncnc3cc(Cl)c(-c4ccc(C#N)cc4)cc23)CC1
// ascending sort on recorded Rate Constant for Reaction with Indicated Protein, RALA G23C Answer by writing out the labels in the requested order.
III, I, II
(III: 2.6 M⁻¹ s⁻¹, I: 4.0 M⁻¹ s⁻¹, II: 19 M⁻¹ s⁻¹)
